- Test system: H1 human embryonic stem cells
- methodDescription: Secondary assay: panel of compounds with growth factor combinations and muscimol, no activin A (Example 6, Table 5)
- Assay type: cell-based
- conditionNotes: no AA (with Wnt3a); EGF
Attribute: Cell Number, Average Total Cell Number
// keep it numeric: no unit symbol after the value

Check out these entries, answers already filled in.
INSERT INTO assay_data (compound, testreadout, resultnumber) VALUES
  ('CN1CCC(=O)NCCCNc2ncccc2-c2ncnc(n2)Nc2cccc(c2)C1', 'Cell Number, Average Total Cell Number', 11615),
  ('CCN1CCCc2cccc(c2)-c2ncnc(n2)Nc2cccc(c2)CCNC(=O)C1', 'Cell Number, Average Total Cell Number', 1971),
  ('O=C1CCN2CCN(CC2)Cc2cc(Cl)cc(c2)Nc2ncnc(n2)-c2cncc(c2)CCCN1', 'Cell Number, Average Total Cell Number', 13062),
  ('CCN1CC(=O)NCCCc2cncc(c2)-c2ncnc(n2)Nc2cc(Cl)cc(c2)C1', 'Cell Number, Average Total Cell Number', 23887),
  ('O=C1NCCCc2cncc(c2)-c2ncnc(n2)Nc2cc(Cl)cc(c2)CN2CCCC1C2 (stereo not shown)', 'Cell Number, Average Total Cell Number', 7966),
  ('O=C1NCCCc2cncc(c2)-c2ncnc(n2)Nc2cccc(c2)CN2CCC1CC2', 'Cell Number, Average Total Cell Number', 14105);

We next turn to a different compound, shown below.
Data point: O=C1NCCCc2cncc(c2)-c2ncnc(n2)Nc2cccc(c2)CN2CCCC1C2 (stereo not shown) ; Cell Number, Average Total Cell Number = 6942

====

- Tested on: H1 human embryonic stem cells
- methodDescription: Screen of CDK, GSK3 and TRK inhibitors with or without GDF-8, SOX17 and cell number (Example 20, Table 17)
- Type: cell-based
- conditionNotes: Plate 1; compound alone, No GDF8
testReadout: Sox17 Expression, Average Total Intensity

Check out these entries, answers already filled in.
INSERT INTO assay_data (molecule, studysystem, result) VALUES
  ('COc1ccc2cc1OCCCC(=O)N(C)CC1CN(Cc3c[nH]c4ncnc(c34)N2)C1 [Compound 45]', 'H1 human embryonic stem cells', '−4.5E+05'),
  ('O=C(O)c1ccc(Nc2ncc3nnn(-c4cccc(F)c4)c3n2)cc1 [Compound 6]', 'H1 human embryonic stem cells', '−1.8E+05'),
  ('Nc1nccc(-c2cccc(Nc3ncc4nnn(-c5cccc(CNC(=O)C6CC6)c5)c4n3)c2)n1 [Compound 8]', 'H1 human embryonic stem cells', '3.8E+05');

We next turn to a different molecule, shown below.
H1 human embryonic stem cells Sox17 Expression, Average Total Intensity of CN1CCC(NC(=O)c2ccc(Nc3nccc(N4CCN(C)c5ccccc54)n3)cc2)CC1 [Compound 11] is −1.1E+06

====

Attribute: Sox17 Expression, % of positive control
- Test system: H1 human embryonic stem cells
- methodDescription: Compounds and growth factors with low dose activin A (Example 9, Table 9)
- Format: cell-based
- conditionNotes: 10 ng/ml AA + compound + EGF + FGF4 + PDGF-AB + Wnt3a

Check out these entries, answers already filled in.
INSERT INTO measurements (compound, testreadout, result) VALUES
  ('CCN1CC(=O)NCCCc2cncc(c2)-c2ncnc(n2)Nc2cc(Cl)cc(c2)C1', 'Sox17 Expression, % of positive control', '−3.99 % of positive control'),
  ('CN1CCC(=O)NCCCNc2ncccc2-c2ncnc(n2)Nc2cccc(c2)C1', 'Sox17 Expression, % of positive control', '−0.02 % of positive control'),
  ('O=C1NCCCc2cncc(c2)-c2ncnc(n2)Nc2cc(Cl)cc(c2)CN2CCCC1C2 (stereo not drawn)', 'Sox17 Expression, % of positive control', '−0.55 % of positive control'),
  ('CCN1CCCc2cccc(c2)-c2ncnc(n2)Nc2cccc(c2)CCNC(=O)C1', 'Sox17 Expression, % of positive control', '19.89 % of positive control'),
  ('O=C1CCN2CCN(CC2)Cc2cc(Cl)cc(c2)Nc2ncnc(n2)-c2cncc(c2)CCCN1', 'Sox17 Expression, % of positive control', '241.07 % of positive control');

Data point: O=C1NCCCc2cncc(c2)-c2ncnc(n2)Nc2cccc(c2)CN2CCC1CC2 ; Sox17 Expression, % of positive control = 30.03 % of positive control

====

- Test system: H1 human embryonic stem cells
- methodDescription: Secondary assay: panel of compounds with growth factor combinations and muscimol, no activin A (Example 6, Table 5)
- Type: cell-based
- conditionNotes: no AA (with Wnt3a); EGF + FGF4 + PDGF-A + VEGF
testReadout: Cell Number, % of positive control (%)
Respond numerically; units are % and should not be typed.

INSERT INTO results (compound, resultnumber) VALUES
  ('CCN1CC(=O)NCCCc2cncc(c2)-c2ncnc(n2)Nc2cc(Cl)cc(c2)C1', 154.25);

Data point: CCN1CCCc2cccc(c2)-c2ncnc(n2)Nc2cccc(c2)CCNC(=O)C1 ; Cell Number, % of positive control = 84.70

Data point: O=C1NCCCc2cncc(c2)-c2ncnc(n2)Nc2cccc(c2)CN2CCC1CC2 ; Cell Number, % of positive control = 132.44

Data point: O=C1CCN2CCN(CC2)Cc2cc(Cl)cc(c2)Nc2ncnc(n2)-c2cncc(c2)CCCN1 ; Cell Number, % of positive control = 123.36

Data point: O=C1NCCCc2cncc(c2)-c2ncnc(n2)Nc2cc(Cl)cc(c2)CN2CCCC1C2 (stereo not shown) ; Cell Number, % of positive control = 83.93

Data point: O=C1NCCCc2cncc(c2)-c2ncnc(n2)Nc2cccc(c2)CN2CCCC1C2 (stereo not shown) ; Cell Number, % of positive control = 110.85

Data point: CN1CCC(=O)NCCCNc2ncccc2-c2ncnc(n2)Nc2cccc(c2)C1 ; Cell Number, % of positive control = 84.33

====

- Test system: H1 human embryonic stem cells
- methodDescription: Analog screening with GDF-8 and growth factor/agonist pool (Example 8, Tables 7 and 8)
- Type: cell-based
- conditionNotes: EGF, FGF, PDGF-A, VEGF, PDGF-D, muscimol, GDF8
Label 0 if Cell Number, Average Total Cell Number falls below 8000; label 1 in every other case.

Consider the worked cases shown below.
INSERT INTO measurements (compound, cat) VALUES
  ('O=C1CCN2CCN(CC2)Cc2cccc(c2)Nc2ncnc(n2)-c2ccnc(c2)NCCCN1 [Compound 13]', 0),
  ('CCN1CC(=O)NCCCc2cc(ccn2)-c2ncnc(n2)Nc2cc(Cl)cc(c2)C1 [Compound 14]', 1);

Moving on to the next compound.
Is Cell Number, Average Total Cell Number for CCN1CC(=O)NCCCc2cccc(c2)-c2ncnc(n2)Nc2cc(Cl)cc(c2)C1 [Compound 16] at or above 8000? 1

====

- System: H1 human embryonic stem cells
- methodDescription: Secondary assay: panel of compounds with growth factor combinations and muscimol, no activin A (Example 6, Table 5)
- Type: cell-based
- conditionNotes: no AA (with Wnt3a); EGF + FGF4 + PDGF-AB + Muscimol
testReadout: Cell Number, % of positive control
Form field: result (number plus unit)

Check out these entries, answers already filled in.
INSERT INTO measurements (compound, testreadout, result) VALUES
  ('O=C1NCCCc2cncc(c2)-c2ncnc(n2)Nc2cccc(c2)CN2CCCC1C2 (stereo not shown)', 'Cell Number, % of positive control', '109.91%'),
  ('CN1CCC(=O)NCCCNc2ncccc2-c2ncnc(n2)Nc2cccc(c2)C1', 'Cell Number, % of positive control', '111.48%'),
  ('O=C1CCN2CCN(CC2)Cc2cc(Cl)cc(c2)Nc2ncnc(n2)-c2cncc(c2)CCCN1', 'Cell Number, % of positive control', '151.18%');

We next turn to a different compound, shown below.
Data point: CCN1CCCc2cccc(c2)-c2ncnc(n2)Nc2cccc(c2)CCNC(=O)C1 ; Cell Number, % of positive control = 13.15%

====

- Test system: H1 human embryonic stem cells
- methodDescription: Secondary assay: panel of compounds with growth factor combinations and muscimol, no activin A (Example 6, Table 5)
- Type: cell-based
- conditionNotes: no AA (with Wnt3a); EGF
Attribute: Cell Number, % of positive control
Respond numerically; units are % and should not be typed.

Check out these entries, answers already filled in.
INSERT INTO results (molecule, unittag, resultnumber) VALUES
  ('O=C1NCCCc2cncc(c2)-c2ncnc(n2)Nc2cc(Cl)cc(c2)CN2CCCC1C2 (stereo not drawn)', '%', 76.17),
  ('CN1CCC(=O)NCCCNc2ncccc2-c2ncnc(n2)Nc2cccc(c2)C1', '%', 122.85),
  ('CCN1CCCc2cccc(c2)-c2ncnc(n2)Nc2cccc(c2)CCNC(=O)C1', '%', 18.84);

Data point: CCN1CC(=O)NCCCc2cncc(c2)-c2ncnc(n2)Nc2cc(Cl)cc(c2)C1 ; Cell Number, % of positive control = 228.40

Data point: O=C1NCCCc2cncc(c2)-c2ncnc(n2)Nc2cccc(c2)CN2CCC1CC2 ; Cell Number, % of positive control = 149.19

Data point: O=C1NCCCc2cncc(c2)-c2ncnc(n2)Nc2cccc(c2)CN2CCCC1C2 (stereo not drawn) ; Cell Number, % of positive control = 73.43
